Source listed as patent EP3708171A1.

experimental.details: Randomized, placebo-controlled pilot study of IV 25OHD supplementation in critically ill (ICU) patients; serum vitamin D metabolites and DBP (Example 1)
Assay type: in vivo
experimental.setup: human, in vivo, iv
recorded.metric: Vd

compound	recorded.metric	reported.measurement
C=C1CC[C@H](O)C/C1=C/C=C1\CCC[C@]2(C)[C@@H]([C@H](C)CCCC(C)(C)O)CC[C@@H]12 [25OHD, 25-hydroxyvitamin D]	Vd	~18 L
